- Tested on: 997726-040-R-J2-PDC tumor spheroids, viability;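 note: spheroids exposed to compounds for seven days before readout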
- protocol: Anticancer human tumor 997726-040-R-J2-PDC patient-derived squamous cell lung carcinoma cell line growth inhibition [PI3K]
- measurementConditions: second compound 1 µM; first compound 0.316 µM; hits give low values; spheroids with HUVEC and MSC
# if measured viability, T/C < 20%: t  # else: f

Previously resolved entries follow.
Determine whether this compound shows viability, T/C lower than 20% (ties excluded): Cn1ncc(Cl)c1-c1cc(C(=O)NC(CN)Cc2cccc(F)c2)sc1Cl (stereo not drawn) + Cc1nc(NC(=O)N2CCCC2C(N)=O)sc1-c1ccnc(C(C)(C)C(F)(F)F)c1
f

Determine whether this compound shows viability, T/C lower than 20% (ties excluded): CC1(C)CCC(CN2CCN(c3ccc(C(=O)NS(=O)(=O)c4ccc(NCC5CCOCC5)c([N+](=O)[O-])c4)c(Oc4cnc5[nH]ccc5c4)c3)CC2)=C(c2ccc(Cl)cc2)C1 + Cc1nc(NC(=O)N2CCCC2C(N)=O)sc1-c1ccnc(C(C)(C)C(F)(F)F)c1
f

---
Determine whether this compound shows viability, T/C lower than 20% (ties excluded): CNC(=O)c1ccc(N2C(=S)N(c3ccc(C#N)c(C(F)(F)F)c3)C(=O)C2(C)C)cc1F + Cc1nc(NC(=O)N2CCCC2C(N)=O)sc1-c1ccnc(C(C)(C)C(F)(F)F)c1
f

Determine whether this compound shows viability, T/C lower than 20% (ties excluded): CNC(=O)c1ccc(N2C(=S)N(c3ccc(C#N)c(C(F)(F)F)c3)C(=O)C2(C)C)cc1F + CC(Nc1ccc2c(c1)OCCn1cc(N3C(=O)OCC3C(F)F)nc1-2)C(N)=O
f

Determine whether this compound shows viability, T/C lower than 20% (ties excluded): CC1(C)CCC(Nc2ncc(C(F)(F)F)c(-c3c[nH]c4c(P(C)(C)=O)c(C#N)ccc34)n2)CN1 (stereo not drawn) + CC(Nc1ccc2c(c1)OCCn1cc(N3C(=O)OCC3C(F)F)nc1-2)C(N)=O
t

Determine whether this compound shows viability, T/C lower than 20% (ties excluded): CCN1CCN(Cc2ccc(Nc3ncc(F)c(-c4cc(F)c5nc(C)n(C(C)C)c5c4)n3)nc2)CC1 + COc1c(OCCCN2CCOCC2)ccc2c3n(c(=NC(=O)c4cnc(N)nc4)nc12)CCN3
t

Determine whether this compound shows viability, T/C lower than 20% (ties excluded): CCCS(=O)(=O)Nc1ccc(F)c(C(=O)c2c[nH]c3ncc(-c4ccc(Cl)cc4)cc23)c1F + COc1c(OCCCN2CCOCC2)ccc2c3n(c(=NC(=O)c4cnc(N)nc4)nc12)CCN3
t

Determine whether this compound shows viability, T/C lower than 20% (ties excluded): CNC(=O)c1ccc(N2C(=S)N(c3ccc(C#N)c(C(F)(F)F)c3)C(=O)C2(C)C)cc1F + COc1c(OCCCN2CCOCC2)ccc2c3n(c(=NC(=O)c4cnc(N)nc4)nc12)CCN3
t

Determine whether this compound shows viability, T/C lower than 20% (ties excluded): CC(C)NCC(C(=O)N1CCN(c2ncnc3c2C(C)CC3O)CC1)c1ccc(Cl)cc1 (stereo not drawn) + COc1c(OCCCN2CCOCC2)ccc2c3n(c(=NC(=O)c4cnc(N)nc4)nc12)CCN3
t

Determine whether this compound shows viability, T/C lower than 20% (ties excluded): Cn1ncc(Cl)c1-c1cc(C(=O)NC(CN)Cc2cccc(F)c2)sc1Cl (stereo not drawn) + COc1c(OCCCN2CCOCC2)ccc2c3n(c(=NC(=O)c4cnc(N)nc4)nc12)CCN3
t

Determine whether this compound shows viability, T/C lower than 20% (ties excluded): C[C@@H](NC(=O)c1ncnc(N)c1Cl)c1ncc(C(=O)Nc2cc(C(F)(F)F)c(Cl)cn2)s1 + COc1c(OCCCN2CCOCC2)ccc2c3n(c(=NC(=O)c4cnc(N)nc4)nc12)CCN3
t

Determine whether this compound shows viability, T/C lower than 20% (ties excluded): CC(Cn1ccc(-c2ccc(C#N)c(Cl)c2)n1)NC(=O)c1cc(C(C)O)[nH]n1 (stereo not drawn) + CC(Nc1ncnc2nc[nH]c12)c1cc2cccc(Cl)c2c(=O)n1-c1ccccc1
f

Data provenance: PubChem BioAssay AID1963964
